STUDY_TARGET: Aurora B kinase (Homo sapiens, UniProt Q96GD4)
Sequence (Q96GD4 whole entry): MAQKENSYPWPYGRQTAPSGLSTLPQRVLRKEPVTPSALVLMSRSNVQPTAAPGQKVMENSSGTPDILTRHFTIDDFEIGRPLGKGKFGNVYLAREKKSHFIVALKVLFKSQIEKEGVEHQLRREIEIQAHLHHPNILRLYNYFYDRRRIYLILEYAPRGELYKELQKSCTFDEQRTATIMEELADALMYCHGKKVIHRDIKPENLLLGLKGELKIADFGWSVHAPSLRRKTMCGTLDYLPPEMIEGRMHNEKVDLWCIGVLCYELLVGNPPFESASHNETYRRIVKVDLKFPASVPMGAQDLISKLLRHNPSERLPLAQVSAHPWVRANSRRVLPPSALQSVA
REPORTED_PROPERTY: pIC50
FYI, pIC50 means -log10 of a concentration in mol per litre.

Consider the following illustrative entries.
{"COMPOUND": "CCN(CCCN1CCOCC1)C(=O)c1ccc2c(c1)S/C(=C(/C(N)=O)c1nccc(C(F)(F)F)n1)N2 [Compound 42A]", "pIC50": 8.22}
{"COMPOUND": "COc1cc(C(F)(F)F)nc(/C(C(N)=O)=C2/Nc3ccccc3S2)n1", "pIC50": 8.00}
{"COMPOUND": "NC(=O)C(=C1Nc2ccc([N+](=O)[O-])cc2S1)c1nccc(C(F)(F)F)n1 (single isomer, unassigned) [Compound 26A]", "pIC50": 7.00}
{"COMPOUND": "NC(=O)/C(=C1\\Nc2ccc(C(=O)O)cc2S1)c1nccc(C(F)(F)F)n1 [Compound 27A]", "pIC50": 8.05}
{"COMPOUND": "NC(=O)/C(=C1\\Nc2ccc(OCCCN3CCOCC3)cc2S1)c1nccc(C(F)(F)F)n1 [Compound 113A]", "pIC50": 7.70}
{"COMPOUND": "NC(=O)C(=C1Nc2ccc(N)cc2S1)c1nccc(C(F)(F)F)n1 (single isomer, unassigned) [Compound 32A]", "pIC50": 8.00}
{"COMPOUND": "CN(C)CCOc1ccc2c(c1)S/C(=C(/C(N)=O)c1nccc(C(F)(F)F)n1)N2 [Compound 116A]", "pIC50": 8.10}
{"COMPOUND": "NC(=O)/C(=C1\\Nc2ccc(C(=O)NCCN3CCC(F)(F)CC3)cc2N1)c1nccc(C(F)(F)F)n1 [Compound 51A]", "pIC50": 8.22}
{"COMPOUND": "NC(=O)/C(=C1\\Nc2ccccc2S1)c1nccc(-c2ccccc2)n1 [Compound 20A]", "pIC50": 7.70}
{"COMPOUND": "NC(=O)/C(=C1\\Nc2ccc(CN3CCOCC3)cc2S1)c1nccc(C(F)(F)F)n1 [Compound 91A]", "pIC50": 7.70}

Next, consider the following compound.
Task: Which measured pIC50 belongs to NC(=O)C(=C1Nc2ccccc2N1)c1nccc(C(F)(F)F)n1 , tested on Aurora B kinase (Homo sapiens, UniProt Q96GD4)?
Result: 8.30

----------
STUDY_TARGET: Aurora A kinase (Homo sapiens)
Construct: purchased Upstate Biotech
Sequence (O14965 whole entry): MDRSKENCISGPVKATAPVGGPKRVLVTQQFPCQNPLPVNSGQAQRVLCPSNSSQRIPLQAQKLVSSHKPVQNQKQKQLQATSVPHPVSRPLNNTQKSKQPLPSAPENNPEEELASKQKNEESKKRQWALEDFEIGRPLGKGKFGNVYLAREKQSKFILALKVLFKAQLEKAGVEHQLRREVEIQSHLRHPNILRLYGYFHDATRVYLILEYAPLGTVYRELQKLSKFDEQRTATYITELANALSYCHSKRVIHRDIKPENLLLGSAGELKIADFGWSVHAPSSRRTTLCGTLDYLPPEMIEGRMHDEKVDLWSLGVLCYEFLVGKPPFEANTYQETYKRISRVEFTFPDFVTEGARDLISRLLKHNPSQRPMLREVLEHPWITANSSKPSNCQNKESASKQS
ASSAY_COMMENT: Aurora A kinase assay (IMAP fluorescence polarization)
Type: biochemical
CONDITION_DESCRIPTION: 10 μM ATP; rounded to 1 significant figure; read-out: Aur-A IC50
REPORTED_PROPERTY: pIC50
FYI, pIC50 means -log10 of a concentration in mol per litre.

Consider the following illustrative entries.
{"COMPOUND": "NC(=O)/C(=C1\\Nc2ccc(N3CCC(N4CCCCC4)CC3)cc2S1)c1nccc(C(F)(F)F)n1 [Compound 121A]", "pIC50": 7.52}
{"COMPOUND": "Cc1cc2c(cc1C)NC(=C(C(N)=O)c1ncc(C(=O)NCCN3CCOCC3)c(C(F)(F)F)n1)N2 [Compound 136A]", "pIC50": 7.70}
{"COMPOUND": "NC(=O)/C(=C1\\Nc2ccc(C(=O)NC3CCNCC3)cc2S1)c1nccc(C(F)(F)F)n1 [Compound 71A]", "pIC50": 7.70}

Task: Any idea what pIC50 was measured for NC(=O)/C(=C1\Nc2ccc(CCn3ccnc3)cc2S1)c1nccc(C(F)(F)F)n1 [Compound 95A] ?
Result: 7.70

Task: Okay, and NC(=O)/C(=C1\Nc2ccc(NC(=O)CCCN3CCOCC3)cc2N1)c1nccc(C(F)(F)F)n1 [Compound 85A] ?
Result: 8.30

Task: Okay, and CN(C)CCOc1ccc2c(c1)S/C(=C(/C(N)=O)c1nccc(C(F)(F)F)n1)N2 [Compound 116A] ?
Result: 7.40

----------
As shown below, each of these molecules has a reported IC50 value.
STUDY_TARGET: VEGFR2 kinase (Homo sapiens, UniProt P35968)
Sequence (P35968 20-1356): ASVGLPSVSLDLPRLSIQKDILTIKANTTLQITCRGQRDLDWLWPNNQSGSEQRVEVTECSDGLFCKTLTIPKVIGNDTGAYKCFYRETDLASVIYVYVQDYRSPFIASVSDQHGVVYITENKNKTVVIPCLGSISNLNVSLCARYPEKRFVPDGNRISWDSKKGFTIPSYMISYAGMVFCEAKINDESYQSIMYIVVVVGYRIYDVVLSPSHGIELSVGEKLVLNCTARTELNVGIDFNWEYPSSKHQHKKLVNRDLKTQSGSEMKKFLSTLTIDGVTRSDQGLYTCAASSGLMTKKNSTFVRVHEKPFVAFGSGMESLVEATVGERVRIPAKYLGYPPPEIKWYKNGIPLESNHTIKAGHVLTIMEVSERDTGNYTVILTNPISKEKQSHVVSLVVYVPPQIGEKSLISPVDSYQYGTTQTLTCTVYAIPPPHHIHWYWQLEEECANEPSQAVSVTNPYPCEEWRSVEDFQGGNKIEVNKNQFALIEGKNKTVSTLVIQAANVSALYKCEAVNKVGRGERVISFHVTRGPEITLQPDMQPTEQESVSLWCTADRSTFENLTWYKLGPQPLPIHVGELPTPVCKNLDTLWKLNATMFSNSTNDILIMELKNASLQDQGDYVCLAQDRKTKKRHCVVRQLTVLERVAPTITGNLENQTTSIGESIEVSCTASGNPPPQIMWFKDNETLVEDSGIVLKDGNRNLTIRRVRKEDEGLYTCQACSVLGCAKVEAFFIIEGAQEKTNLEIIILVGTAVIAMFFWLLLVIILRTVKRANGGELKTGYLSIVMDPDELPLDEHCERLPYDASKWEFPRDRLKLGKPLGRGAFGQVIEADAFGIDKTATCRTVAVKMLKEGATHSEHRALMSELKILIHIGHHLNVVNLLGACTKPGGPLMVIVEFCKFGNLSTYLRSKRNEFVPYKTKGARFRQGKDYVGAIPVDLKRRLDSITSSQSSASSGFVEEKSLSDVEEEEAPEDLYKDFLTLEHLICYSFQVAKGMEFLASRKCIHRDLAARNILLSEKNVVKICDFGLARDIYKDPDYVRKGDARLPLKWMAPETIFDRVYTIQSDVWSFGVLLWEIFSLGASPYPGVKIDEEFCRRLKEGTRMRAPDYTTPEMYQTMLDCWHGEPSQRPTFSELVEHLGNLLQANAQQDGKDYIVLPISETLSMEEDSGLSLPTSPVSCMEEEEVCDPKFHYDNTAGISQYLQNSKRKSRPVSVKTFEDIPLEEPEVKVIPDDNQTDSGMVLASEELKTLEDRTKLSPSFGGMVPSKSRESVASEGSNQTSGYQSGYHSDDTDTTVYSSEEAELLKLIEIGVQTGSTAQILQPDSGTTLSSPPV
State just the number; it will be interpreted in nM.

Consider the following illustrative entries.
{"MOLECULE": "CN1CCC[C@H]1C(=O)Nc1ccc2c(c1)N/C(=C(/C(N)=O)c1nccc(C(F)(F)F)n1)N2 [Compound 77A]", "REPORTED_PROPERTY": "IC50", "READING_UNIT": "nM", "READOUT_NUMBER": 9}
{"MOLECULE": "CN1CCN(S(=O)(=O)c2ccc3c(c2)S/C(=C(/C(N)=O)c2nccc(C(F)(F)F)n2)N3)CC1 [Compound 126A]", "REPORTED_PROPERTY": "IC50", "READING_UNIT": "nM", "READOUT_NUMBER": 70}
{"MOLECULE": "NC(=O)/C(=C1\\Nc2ccc(CO)cc2N1)c1nccc(C(F)(F)F)n1 [Compound 35A]", "REPORTED_PROPERTY": "IC50", "READING_UNIT": "nM", "READOUT_NUMBER": 20}
{"MOLECULE": "NC(=O)/C(=C1\\Nc2ccc(C(=O)NCCN3CCC(F)(F)CC3)cc2N1)c1nccc(C(F)(F)F)n1 [Compound 51A]", "REPORTED_PROPERTY": "IC50", "READING_UNIT": "nM", "READOUT_NUMBER": 20}
{"MOLECULE": "CN1CCN(C(=O)c2ccc3c(c2)N/C(=C(/C(N)=O)c2nccc(C(F)(F)F)n2)N3)CC1 [Compound 58A]", "REPORTED_PROPERTY": "IC50", "READING_UNIT": "nM", "READOUT_NUMBER": 9}
{"MOLECULE": "NC(=O)C(=C1Nc2ccc([N+](=O)[O-])cc2S1)c1nccc(C(F)(F)F)n1 (single isomer, unassigned) [Compound 26A]", "REPORTED_PROPERTY": "IC50", "READING_UNIT": "nM", "READOUT_NUMBER": 1000}

Task: Which measured IC50 belongs to Cc1cc(C)nc(/C(C(N)=O)=C2/Nc3ccccc3S2)n1 [Compound 22A] , tested on VEGFR2 kinase (Homo sapiens, UniProt P35968)?
Result: 200

Task: Okay, and Cn1ccnc1-c1ccc2c(c1)S/C(=C(/C(N)=O)c1nccc(C(F)(F)F)n1)N2 [Compound 106A] ?
Result: 30

Task: Okay, and NC(=O)C(=C1Nc2cc(F)c(F)cc2N1)c1nccc(C(F)(F)F)n1 [Compound 38A] ?
Result: 200

Task: Okay, and NC(=O)/C(=C1\Nc2ccc(C(=O)N(CCO)CCO)cc2N1)c1nccc(C(F)(F)F)n1 [Compound 30A] ?
Result: 8

Task: Okay, and NC(=O)/C(=C1\Nc2ccccc2S1)c1nccc(C(F)(F)F)n1 ?
Result: 90

Task: Okay, and NC(=O)/C(=C1\Nc2ccc(N3CCC(N4CCOCC4)CC3)cc2S1)c1nccc(C(F)(F)F)n1 [Compound 122A] ?
Result: 20

Task: Okay, and COC(=O)c1cc(C)nc(/C(C(N)=O)=C2/Nc3ccccc3S2)n1 [Compound 23A] ?
Result: 100

----------
Test system: HCT116 (human colon carcinoma) cells
ASSAY_COMMENT: HCT116 cytotoxicity assay (CellTiter-Glo)
Assay type: cell-based
CONDITION_DESCRIPTION: HCT-116, 72 h, cytotoxicity, three days culture, read-out: HCT116 IC50
As shown below, each of these molecules has a reported pIC50 value.
FYI, pIC50 means -log10 of a concentration in mol per litre.

Consider the following illustrative entries.
{"MOLECULE": "NC(=O)/C(=C1\\Nc2ccc(CCn3ccnc3)cc2S1)c1nccc(C(F)(F)F)n1 [Compound 95A]", "pIC50": 5.70}
{"MOLECULE": "NCC(=O)Nc1ccc2c(c1)SC(=C(C(N)=O)c1nccc(C(F)(F)F)n1)N2 (single isomer, unassigned) [Compound 76A]", "pIC50": 6.15}
{"MOLECULE": "NC(=O)/C(=C1\\Nc2ccc(N3CCC(N4CCOCC4)CC3)cc2S1)c1nccc(C(F)(F)F)n1 [Compound 122A]", "pIC50": 5.40}
{"MOLECULE": "CN1CCN(C(=O)c2ccc3c(c2)N/C(=C(/C(N)=O)c2nccc(C(F)(F)F)n2)N3)CC1 [Compound 58A]", "pIC50": 6.40}
{"MOLECULE": "CN(C)CC(=O)Nc1ccc2c(c1)S/C(=C(/C(N)=O)c1nccc(C(F)(F)F)n1)N2 [Compound 74A]", "pIC50": 6.52}

Task: Which measured pIC50 belongs to CCN(C(=O)[C@@H]1CCCN1C)c1ccc2c(c1)N/C(=C(/C(N)=O)c1nccc(C(F)(F)F)n1)N2 [Compound 145A] , tested on HCT116 (human colon carcinoma) cells?
Result: 6.70

Task: Okay, and NC(=O)/C(=C1\Nc2ccccc2S1)c1nc(N)cc(C(F)(F)F)n1 [Compound 13A] ?
Result: 6.15
